experimental-system: T1, human PAC1 receptor (human, UniProt P41586 21-468)
T1 sequence (looked up): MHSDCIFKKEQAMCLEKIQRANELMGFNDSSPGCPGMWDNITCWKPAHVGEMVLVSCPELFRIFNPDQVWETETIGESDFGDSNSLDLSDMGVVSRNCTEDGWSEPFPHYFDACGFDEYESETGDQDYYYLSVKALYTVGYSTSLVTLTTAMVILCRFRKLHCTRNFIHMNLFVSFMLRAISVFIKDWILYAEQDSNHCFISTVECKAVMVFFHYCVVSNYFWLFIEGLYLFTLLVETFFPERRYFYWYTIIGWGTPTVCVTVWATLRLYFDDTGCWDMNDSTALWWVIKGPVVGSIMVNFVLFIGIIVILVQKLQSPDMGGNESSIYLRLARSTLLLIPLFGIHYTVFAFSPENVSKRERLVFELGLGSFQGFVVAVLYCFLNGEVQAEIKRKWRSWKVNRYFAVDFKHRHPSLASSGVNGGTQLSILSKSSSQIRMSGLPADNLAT
assay-info: cell-based or functional assay
Where no end group is shown, it is not given here. [ ]: non-standard residue; d: D form. hArg = N=C(N)NCCCC[C@H](N)C(=O)O
In plain terms, low EC50 cAMP, DiscoveRx, meaning strictly below 40 nM, gives yes (1), and everything else gives no (0).

Find out if reported EC50 cAMP, DiscoveRx for HSDAVFTDNYTRLRKQVAAKKYLQSIRNKRYGGPSSGAPPPS [P23] is less than 40 nM
no (0)

Here's an entry: HSDAVFTDNYTRLRKQVAAKKYLQSIKNKRYC [P37] . Is its EC50 cAMP, DiscoveRx below 40 nM?
yes (1)

Item HSDAVFTDNYTRLRKQVAAKKYLQSIKN[hArg]RYGGPSSGAPPPS (ends and bridges not checked) [P24] : EC50 cAMP, DiscoveRx beneath 40 nM, strictly?
no (0)

Does this binder meet the criterion EC50 cAMP, DiscoveRx < 40 nM? HSDVVFTDNYTRLRKQVAAKKYLQSIKNKRYGGPSSGAPPPS [P53]
no (0)

Strictly below 40 nM in EC50 cAMP, DiscoveRx? HSDAVYTDNYTRLRKQVAAKKYLQSIKNKRYGGPSSGAPPPS [P68]
no (0)

Others:
Dear colleague, could you confirm whether EC50 cAMP, DiscoveRx of HSDALFTDNYTRLRKQVAAKKYLQSIKNKRYGGPSSGAPPPS (not fully specified) [P61] falls below 40 nM? Thanks.
yes (1)

Would you kindly verify if EC50 cAMP, DiscoveRx of Ac-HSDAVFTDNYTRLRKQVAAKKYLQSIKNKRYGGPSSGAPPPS [P33] is strictly less than 40 nM?
no (0)

Dear colleague, could you confirm whether EC50 cAMP, DiscoveRx of HSDAVTTDNYTRLRKQVAAKKYLQSIKNKRYGGPSSGAPPPS [P65] falls below 40 nM? Thanks.
yes (1)

Please check: EC50 cAMP, DiscoveRx for HSDTVFTDNYTRLRKQVAAKKYLQSIKNKRYGGPSSGAPPPS [P54] , strictly under 40 nM or not?
no (0)

A record lists HSDAVFTDNWTRLRKQVAAKKYLQSIKNKRYGGPSSGAPPPS [P27] . Is its EC50 cAMP, DiscoveRx below 40 nM?
no (0)

Regarding HVDAVFTDNYTRLRKQVAAKKYLQSIKNKRYGGPSSGAPPPS (not fully specified) [P44] , kindly confirm whether its EC50 cAMP, DiscoveRx is beneath 40 nM.
yes (1)

Source listed as patent US20080026996A1.
